- assay.target: T1, cynomolgus monkey GITR (cynomolgus monkey, UniProt Q9Y5U5 26-241 (human entry))
- T1 construct: also called cyno GITR
- T1 chain: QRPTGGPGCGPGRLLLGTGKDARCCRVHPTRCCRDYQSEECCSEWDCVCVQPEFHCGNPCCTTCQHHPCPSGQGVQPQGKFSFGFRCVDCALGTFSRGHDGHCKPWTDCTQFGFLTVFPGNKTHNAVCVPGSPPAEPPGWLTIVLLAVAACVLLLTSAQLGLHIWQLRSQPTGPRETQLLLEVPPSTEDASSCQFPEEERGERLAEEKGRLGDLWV
- protocol: cyno T cell binding EC50 against human T cell binding EC50
Param threshold (7 ratio) applies to Cyno:Hu Binding EC50 Ratio; output y when value >= threshold, n when value < threshold.

See these solved cases before continuing.
[
  {
    "binder": "33C9v2 (antibody, human IgG1, kappa, V domains shown, Engineered variant; also called Ab51; SS-13808) VH: QVQVVESGGGVVQPGRSLRLSCAASGFTFSSYGMHWVRQAPGKGLEWVSVIWYEGSNKYYAESVKGRFTISRDNSKNTLYLQMNSLRAEDTAVYYCARGGLLGYYYYYGMDVWGQGTTVTVSS VL: DIQMTQSPSSLSASVGDRVTITCRASQGIRNDLGWYQQKPGKAPKRLIYDASSLQSGVPSRFSGSGSGTEFTLTISSLQPEDFATYYCLQHHSYPWTFGQGTKVEIKR",
    "group.label": "y"
  },
  {
    "binder": "5H7v2 (antibody, human IgG1, kappa, V domains shown, Engineered variant; also called Ab26; SS-13807) VH: QVQLQESGPGLVKPSETLSLTCTVSGGSISSGGYFWSWIRQPPGKGLEWIGYIYYSGTTYYNPSLKSRVTISIDTSKNQFSLKLSSVTAADTAVYYCARDLFYYDTSGPRGFDPWGQGTLVTVSS VL: EIVLTQSPGTLSLSPGERATLSCRASQTVSSNYLAWYQQKPGQAPRLLIYGSSTRATGIPDRFSGSGSGTDFTLTISRLEPEDFAVYYCQQYDSSPWTFGQGTKVEIKR",
    "group.label": "n"
  },
  {
    "binder": "7A10v1 (antibody, human IgG1, kappa, V domains shown, Engineered variant; also called Ab39; SS-13810) VH: QVQLVESGGGVVQPGRSLRLSCAASGFTFSSYGMHWVRQAPGKGLEWMAVIWYVGSNKYYADSVKGRFTISRDNSKNTLYLQMNSLRAEDTAVYYCARGGELGRDYYSGMDVWGQGTTVTVSS VL: DIQMTQSPSSLSASVGDRVTITCRASQGIRNDLGWYQQKPGKAPKRLIYAASSLQSGVPSRFSGSGSGTEFTLTISSLQPEDFATYYCQQHNSYPWTFGQGTKVEIKR",
    "group.label": "n"
  }
]

Turning now to a further binder:
# bool: Cyno:Hu Binding EC50 Ratio of 41G5v2 (antibody, human IgG1, kappa, V domains shown, Engineered variant; also called Ab56; SS-13809) VH: QVQLVESGGGVVQPGRSLRLSCAASGFTFSSYGMHWVRQAPGKGLEWVAVIWYPGSNKYYAESVKGRFTISRDNSKNTLYLQMNSLRAEDTAVYYCARGGELGRYYYYGMDVWGQGTTVTVSS VL: DIQMTQSPSSLSASVGDRVTVTCRASQGIRNDLGWYQQKPGKAPKRLIYAASSLQSGVPSRFSGSGSGTEFTLTISSLQPEDFATYYCLQHNNYPWTFGQGTKVDIKR >= 7 ratio
n

meta.source: patent US20150064204A1
